molecular target: PD-1/PD-L1 interaction (Homo sapiens); construct: expressed in transfected cells; host or cells: CHO cells (aAPC-PD-L1) co-cultured with Jurkat cells overexpressing PD-1 and an NFAT-luciferase reporter; test: PD-1/PD-L1 NFAT reporter co-culture assay; assay type: cell-based; conditions: Jurkat PD-1 NFAT-luciferase cells co-cultured with aAPC-PD-L1 CHO cells, 6 hrs at 37° C.; read-out: EC50 NFAT Luciferase
Recorded EC50 determines the label; the label ranges are 1: < 0.2 µM; 2: ≥ 0.2 µM and < 0.7 µM; 3: ≥ 0.7 µM

# count of solved cases: 5
COMPOUND: Cc1c(-c2ccc(OCCNC[C@@H](O)CC(=O)O)cc2)cccc1-c1cccc2c1CC[C@@H]2Oc1nc(OCc2cncc(C#N)c2)c(CNC[C@@H](O)CC(=O)O)cc1Cl
CLASS_ASSIGNMENT: 1
//
COMPOUND: Cc1c(COc2cc(OCc3cncc(C#N)c3)c(CN[C@@](C)(CO)C(=O)O)cc2Cl)cccc1-c1cccc(-c2ccc(C3CCCN3CCO)cc2)c1C (stereo partly shown)
CLASS_ASSIGNMENT: 3
//
COMPOUND: Cc1c(COc2cc(OCc3cncc(C#N)c3)c(CNCC3(O)CC3)cc2Cl)cccc1-c1cccc(-c2ccc(OCCNCCO)cc2)c1C
CLASS_ASSIGNMENT: 2
//
COMPOUND: COc1nc(-c2cccc(-c3cccc4c3CC[C@@H]4Oc3nc(OC)c(CN4CC[C@H](C(=O)O)C4)cc3Cl)c2Cl)ccc1CN1CC(CO)C1
CLASS_ASSIGNMENT: 1
//
COMPOUND: Cc1c(COc2cc(OCc3cncc(C#N)c3)c(CNC[C@@H](O)CC(=O)O)cc2Cl)cccc1-c1cccc(COc2cc(OCc3cncc(C#N)c3)c(CNC[C@@H](O)CC(=O)O)cc2Cl)c1C
CLASS_ASSIGNMENT: 2

Textbook exercise: identify the category of the compound given here, COc1nc(-c2cccc(-c3cccc(COc4nc(OCc5cncc(C#N)c5)c(CNCCO)cc4Br)c3Cl)c2Cl)ccc1C1=NCCN1 , according to its measured value.
1

Would you mind doing Cc1c(COc2cc(OCc3cncc(C#N)c3)c(CNC[C@@H](O)CC(=O)O)cc2Cl)cccc1-c1cccc(-c2ccc([C@H](C)N(C)C)cc2)c1C as well?
2

Try N#Cc1cncc(COc2cc(O[C@H]3CCc4c(-c5cccc(-c6nc7ccc(CNC[C@@H]8CCC(=O)N8)cn7n6)c5Cl)cccc43)c(Cl)cc2CNC[C@@H]2CCC(=O)N2)c1 next.
1

* * *

The entries below are paired with their reported EC50.
target: PD-1/PD-L1 interaction (Homo sapiens, UniProt Q9NZQ7); construct: expressed in transfected cells; host or cells: CHO cells (aAPC-PD-L1) co-cultured with Jurkat cells overexpressing PD-1 and an NFAT-luciferase reporter; assay: PD-1/PD-L1 NFAT reporter co-culture assay; assay type: cell-based; conditions: Jurkat PD-1 NFAT-luciferase cells co-cultured with aAPC-PD-L1 CHO cells, 6 hrs at 37° C.; read-out: EC50 NFAT Luciferase
Sequence (Q9NZQ7 19-290): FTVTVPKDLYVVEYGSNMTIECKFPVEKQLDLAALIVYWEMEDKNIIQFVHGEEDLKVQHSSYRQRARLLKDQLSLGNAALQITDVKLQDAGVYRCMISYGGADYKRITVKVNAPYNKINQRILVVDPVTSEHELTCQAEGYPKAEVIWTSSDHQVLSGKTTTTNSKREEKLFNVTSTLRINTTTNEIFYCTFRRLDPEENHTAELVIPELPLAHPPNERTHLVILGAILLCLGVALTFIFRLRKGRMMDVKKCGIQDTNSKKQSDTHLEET
Please respond with the number in nM and leave the unit unwritten.

Reference set (2 entries):
STRUCTURE_AS_SMILES: Cc1c(COc2cc(OCc3cncc(C#N)c3)c(CNC[C@@H](O)CC(=O)O)cc2Cl)cccc1-c1cccc(-c2cnc3c(CNC[C@@H](O)CC(=O)O)cccc3c2)c1C
SYSTEM_NAME: PD-1/PD-L1 interaction (Homo sapiens, UniProt Q9NZQ7)
ENDPOINT_LABEL: EC50
VALUE_MEASURED: 253
--
STRUCTURE_AS_SMILES: COc1nc(O[C@H]2CCc3c(-c4cccc(-c5ccc(CNC[C@@H]6CCC(=O)N6)cc5)c4Cl)cccc32)c(Cl)cc1CNC[C@@H](O)CC(=O)O
SYSTEM_NAME: PD-1/PD-L1 interaction (Homo sapiens, UniProt Q9NZQ7)
ENDPOINT_LABEL: EC50
VALUE_MEASURED: 14

# EC50 lookup, item COc1nc(OCc2cccc(-c3cccc(COc4nc(OC)c(CNCCN5CCCS5(=O)=O)cc4Br)c3C)c2C)c(Br)cc1CNCCN1CCCS1(=O)=O
1290

* * *

target: PD-1/PD-L1 (Homo sapiens, UniProt Q9NZQ7); experiment: PD-1/PD-L1 biochemical protein-protein interaction assay (ALPHA); settings: 0.3 nM His tagged PD-L1, 2.5 nM biotinylated Fc-PD-1, 60 minutes at 25° C., read-out: IC50 PD-L1-PD-1 Alpha IC50-mono PD-L1-fcP-D1
Sequence (Q9NZQ7 19-238 limits assumed): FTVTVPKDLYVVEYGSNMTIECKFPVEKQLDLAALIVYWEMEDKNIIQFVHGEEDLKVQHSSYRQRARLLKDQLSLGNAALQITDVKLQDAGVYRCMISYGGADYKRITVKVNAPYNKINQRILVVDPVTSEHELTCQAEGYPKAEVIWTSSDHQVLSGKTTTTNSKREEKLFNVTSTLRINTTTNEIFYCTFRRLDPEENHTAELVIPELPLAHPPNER
ENDPOINT_LABEL: pIC50
The read-out pIC50 is expressed as -log10 of concentration in moles per litre.

Example results:
STRUCTURE_AS_SMILES: CCOC(=O)[C@@H]1CCN(Cc2cc(Cl)c(O[C@H]3CCc4c(-c5cccc(-c6ccc(CN7CC8(C7)CN(C(C)=O)C8)cc6)c5Cl)cccc43)nc2OC)C1
pIC50: 9.38
--
STRUCTURE_AS_SMILES: Cc1c(COc2cc(OCc3ccnc(C#N)c3)c(CNC[C@@H](O)CC(=O)O)cc2Cl)cccc1-c1cccc(COc2cc(OCc3ccnc(C#N)c3)c(CNC[C@@H](O)CC(=O)O)cc2Cl)c1C
pIC50: 9.70
--
STRUCTURE_AS_SMILES: COc1nc(-c2cccc(-c3cccc4c3CC[C@@H]4Oc3nc(OC)c(CN4CC[C@@H](c5nnn[nH]5)C4)cc3Cl)c2Cl)ccc1CNC[C@@H]1CCC(=O)N1
pIC50: 10.19
--
STRUCTURE_AS_SMILES: COc1cc(-c2cccc(-c3cccc(COc4nc(OCc5cncc(C#N)c5)c(CNC[C@@H]5CCC(=O)N5)cc4Br)c3Cl)c2Cl)ccc1CNC[C@@H]1CCC(=O)N1
pIC50: 9.19

Proceeding to the next molecule to report its pIC50.
Can you look up the measured pIC50 of COc1cc(COc2cccc(-c3cccc(COc4cc(OCc5cncc(C#N)c5)c(CNC[C@@H](O)CC(=O)O)cc4Cl)c3C)c2C)c(Cl)cc1CNC[C@@H](O)CC(=O)O for me?
9.43

* * *

molecular target: PD-1/PD-L1 interaction (Homo sapiens); construct: expressed in transfected cells; host or cells: CHO cells (aAPC-PD-L1) co-cultured with Jurkat cells overexpressing PD-1 and an NFAT-luciferase reporter; assay: PD-1/PD-L1 NFAT reporter co-culture assay; format: cell-based; settings: Jurkat PD-1 NFAT-luciferase cells co-cultured with aAPC-PD-L1 CHO cells, 6 hrs at 37° C.; read-out: EC50 NFAT Luciferase
EC50 strictly less than 300 nM = criterion met. Otherwise criterion not met.

Would you kindly verify if EC50 of COc1nc(-c2cccc(-c3cccc4c3CC[C@@H]4Oc3nc(OC)c(CN4C[C@@H](C)[C@H](C(=O)O)C4)cc3Cl)c2Cl)ccc1CNC[C@@H]1CCC(=O)N1 is strictly less than 300 nM?
criterion met

Next molecule: CC(C)(NCc1cc(Br)c(OCc2cccc(-c3cccc(-c4ccc5c(c4)C[C@@H](N)C5)c3Cl)c2Cl)nc1OCc1cncc(S(C)(=O)=O)c1)C(=O)O
criterion met

// query: Cc1c(COc2ccc(CNC[C@@H](O)CC(=O)O)c(OCCN3CCOCC3)n2)cccc1-c1cccc(COc2ccc(CNC[C@@H](O)CC(=O)O)c(OCCN3CCOCC3)n2)c1C
criterion not met

Now consider COc1nc(OCc2cccc(-c3cccc(COc4nc(OC)c(CNC[C@H](O)CC(=O)O)cc4Cl)c3C)c2C)c(Cl)cc1CNC[C@H](O)CC(=O)O .
criterion met

Another molecule to look at: N#Cc1cncc(COc2nc(O[C@H]3CCc4c(-c5cccc6c5CC[C@@H]6Oc5nc(OCc6cncc(C#N)c6)c(CNC[C@@H](O)CC(=O)O)cc5Br)cccc43)c(Br)cc2CNC[C@@H](O)CC(=O)O)c1
criterion met

Cool, now Cc1c(COc2cc(OCc3cncc(C#N)c3)c(CNC[C@@H](O)CC(=O)O)cc2Cl)cccc1-c1cccc(-c2ccc(CCN3CCCC3)cc2)c1C
criterion not met

Same thing, different molecule: COc1nc(O[C@H]2CCc3c(-c4cccc(-c5ccc(C6=NCCN6)c(OC)n5)c4Cl)cccc32)c(Br)cc1CN1CCCC[C@H]1C(=O)O
criterion met

* * *

target: PD-L1 (Homo sapiens, UniProt Q9NZQ7); construct: determine if they can specifically dimerize the extracellular domains of PD-L1; experiment: PD-L1/PD-L1 dimerization biochemical protein-protein interaction assay (ALPHA); type: binding; conditions: compound-induced PD-L1 dimerization, head prints '1 nM' (0.5 nM His-tagged PD-L1 and 0.5 nM FLAG-tagged PD-L1), read-out: AC50 PDL1 Dimer Alpha 1 nM
ENDPOINT_LABEL: AC50 (nM)
Express your answer in nM, writing the number without its unit.

Example entries begin here.
MOLECULE: Cc1c(COc2cc(OCc3cncc(C#N)c3)c(CNC[C@@H](O)CC(=O)O)cc2Cl)cccc1-c1cccc(-c2ccc3c(cnn3CCNC[C@@H](O)CC(=O)O)c2)c1C [Example 209]
VALUE_MEASURED: 70.5
--
MOLECULE: COc1nc(O[C@H]2CCc3c(-c4cccc(-c5ccc(CNC[C@@H]6CCC(=O)N6)c(OCC#N)c5)c4Cl)cccc32)c(Cl)cc1CNC[C@@H](O)CC(=O)O [Example 654]
VALUE_MEASURED: 10.9
--
MOLECULE: COc1nc(-c2cccc(-c3cccc4c3CC[C@@H]4Oc3nc(OC)c(CN4CC[C@H](C(=O)O)C4)cc3Cl)c2Cl)ccc1CN1CC(C)(CO)C1 [Example 708]
VALUE_MEASURED: 38.6
--
MOLECULE: Cc1c(COc2cc(OCc3cncc(C#N)c3)c(CNC[C@@H](O)CC(=O)O)cc2Cl)cccc1-c1cccc(-c2ccc([C@H](C)N(C)C)cc2)c1C [Example 380]
VALUE_MEASURED: 184
--
MOLECULE: COc1nc(O[C@H]2CCc3c(-c4cccc(-c5cnc(CN6CC(CO)C6)c(OC)n5)c4Cl)cccc32)c(Cl)cc1CN1CC[C@H](C(=O)O)C1 [Example 703]
VALUE_MEASURED: 24.2

Notebook entry, PD-L1 (Homo sapiens, UniProt Q9NZQ7) assay: AC50 of COc1nc(-c2cccc(-c3cccc(-c4ccc5c(c4)C[C@@H](N)C5)c3Cl)c2Cl)ccc1C1=NCCN1 [Example 625] = ?
98.2

Also COc1nc(O[C@H]2CCc3c(-c4cccc(-c5cnc(CNC[C@@H]6CCC(=O)N6)c(OC)n5)c4Cl)cccc32)c(Cl)cc1CN[C@@](C)(CO)C(=O)O [Example 649] ?
38.8

Can you handle Cc1c(COc2cc(OCc3cncc(C#N)c3)c(CNC[C@@H](O)CC(=O)O)cc2Cl)cccc1-c1cccc(OCc2ccc(CNC[C@@H](O)CC(=O)O)cn2)c1C [Example 392] next?
232

Now consider Cc1c(COc2cc(OCc3cncc(C#N)c3)c(CNC[C@@H](O)CC(=O)O)cc2Cl)cccc1-c1cccc(-c2nc3c(Cl)cc(CNC[C@@H](O)CC(=O)O)cn3n2)c1C [Example 393] and answer again.
84

Quick one: Cc1c(COc2cc(OCc3cncc(C(N)=O)c3)c(CN[C@@](C)(CO)C(=O)O)cc2Cl)cccc1-c1cccc(-c2ccc3c(c2)[C@@H](O)C[C@H]3N)c1C [Example 470]
127

And CS(=O)(=O)c1cncc(COc2nc(O[C@H]3CCc4c(-c5cccc6c5CC[C@@H]6Oc5nc(OCc6cncc(S(C)(=O)=O)c6)c(CN6CC[C@@H](O)C6)cc5Cl)cccc43)c(Cl)cc2CN2CC[C@@H](O)C2)c1 [Example 689] ?
114
